Measured Hepatotoxicity (granulomatous hepatitis), listed per entry for reference.
- test context: human
Kindly provide the number alone.

compound	observed value
CCNC1=Nc2ccc(Cl)cc2C(C)(c2ccccc2)O1 (stereo not given)	0
[H]/N=C(\N/C(=N/[H])NCCCCCCNC(=N)NC(=N)Nc1ccc(Cl)cc1)Nc1ccc(Cl)cc1	0
CN1CCN2c3ncccc3Cc3ccccc3C2C1 (stereo not given)	0
CC(=O)Nc1ccc(O)cc1	1
CNC1(c2ccccc2Cl)CCCCC1=O (stereo not given)	0
O=C(O)COc1ccc(C(=O)c2cccs2)c(Cl)c1Cl	0

// Input: `COc1ccc([C@@H]2Sc3ccccc3N(CCN(C)C)C(=O)[C@@H]2OC(C)=O)cc1` . Output its Hepatotoxicity (granulomatous hepatitis) only.
2

---

- test method notes: Highest frequency of moderate liver toxicity observed during clinical trials, expressed as a percentage. [column '% BIOL' in source]
- test context: human
Hi! Could you tag entries with Hepatotoxicity (moderate) below 2% as TRUE, and those at or above as FALSE? Much appreciated.

Worked cases, answers included:
molecule	class label
C[C@@](Cc1ccc(O)c(O)c1)(NN)C(=O)O.O [CARBIDOPA]	TRUE
CCOC(=O)OC(C)OC(=O)[C@@H]1N2C(=O)[C@@H](/N=C/N3CCCCCC3)[C@H]2SC1(C)C (some centres undefined) [BACMECILLINAM]	TRUE
CN(CCCN1c2ccccc2CCc2ccccc21)CC(=O)c1ccc(Cl)cc1 [LOFEPRAMINE]	FALSE

With those in mind, consider the next molecule.
Consider the molecule C=CCC1(CC(C)C)C(=O)NC(=O)NC1=O [BUTALBITAL] . Is its Hepatotoxicity (moderate) strictly less than 2%?
TRUE

---

- test context: human
result type: Hepatotoxicity (choleostasis)
Kindly provide the number alone.

// below: answered molecules
molecule	Hepatotoxicity (choleostasis)
COc1c2occc2c(OC)c2c(=O)cc(C)oc12 [KHELLIN]	0
COc1cccc2c1C(=O)c1c(O)c3c(c(O)c1C2=O)C[C@@](O)(C(=O)CO)C[C@@H]3O[C@H]1C[C@H](N)[C@H](O[C@@H]2CCCCO2)[C@H](C)O1 [PIRARUBICIN]	0
N[C@H](Cc1cc(I)c(Oc2cc(I)c(O)c(I)c2)c(I)c1)C(=O)O [DEXTROTHYROXINE]	0

// Input: C=COCC(F)(F)F [FLUROXENE] . Output its Hepatotoxicity (choleostasis) only.
0

// Input: CN[C@H](CC(C)C)C(=O)N[C@H]1C(=O)N[C@@H](CC(N)=O)C(=O)N[C@H]2C(=O)N[C@H]3C(=O)N[C@H](C(=O)N[C@H](C(=O)O)c4cc(O)cc(O)c4-c4cc3ccc4O)[C@H](O)c3ccc(c(Cl)c3)Oc3cc2cc(c3O[C@@H]2O[C@H](CO)[C@@H](O)[C@H](O)[C@H]2O[C@H]2C[C@](C)(N)[C@H](O)[C@H](C)O2)Oc2ccc(cc2Cl)[C@H]1O [VANCOMYCIN] . Output its Hepatotoxicity (choleostasis) only.
0

// Input: `CO/N=C(\C(=O)N[C@@H]1C(=O)N2C(C(=O)OCOC(=O)C(C)(C)C)=C(Cn3nnc(C)n3)CS[C@H]12)c1csc(N)n1` . Output its Hepatotoxicity (choleostasis) only.
0

// Input: O=C(O[C@@H]1C[C@@H]2C[C@H]3C[C@H](C1)N2CC3=O)c1c[nH]c2ccccc12 [DOLASETRON] . Output its Hepatotoxicity (choleostasis) only.
0

---

- test method notes: Times to onset, minimal and maximal, observed in the indexed observations. [column 'DELAI' in source]
- test context: human
Measured Hepatotoxicity (time to onset), listed per entry for reference.

// below: answered compounds
compound	Hepatotoxicity (time to onset)
CCc1cccc2c3c([nH]c12)C(CC)(CC(=O)O)OCC3 (centres undefined) [ETODOLAC]	4 days - 16 weeks
CNC(=O)c1c(I)c(C(=O)NCC(=O)Nc2c(I)c(C(=O)O)c(I)c(C(=O)NCCO)c2I)c(I)c(N(C)C(C)=O)c1I [IOXAGLIC ACID]	1 days
CCC(=O)[C@@]1(C)CC[C@H]2[C@@H]3CCC4=CC(=O)CCC4=C3CC[C@@]21C [PROMEGESTONE]	3 years

// Input: O=C(O)/C=C/C(=O)O [FUMARIC ACID] . Output its Hepatotoxicity (time to onset) only.
2 months

// Input: CC[C@H]1OC(=O)[C@H](C)[C@@H](O[C@H]2C[C@@](C)(OC)[C@@H](O)[C@H](C)O2)[C@H](C)[C@@H](O[C@@H]2O[C@H](C)C[C@H](N(C)C)[C@H]2O)[C@](C)(OC)C[C@@H](C)C(=O)[C@H](C)[C@@H](O)[C@]1(C)O [CLARITHROMYCIN] . Output its Hepatotoxicity (time to onset) only.
1 day - 10 weeks

// Input: CN(C)CCC=C1c2ccccc2CCc2ccccc21 [AMITRIPTYLINE] . Output its Hepatotoxicity (time to onset) only.
1 week - 10 months

// Input: CC1(C)S[C@@H]2[C@H](NC(=O)Cc3ccccc3)C(=O)N2[C@H]1C(=O)O [PENICILLIN G] . Output its Hepatotoxicity (time to onset) only.
0.5 hour - 18 days

// Input: N[C@@H]1CON=C1O [CYCLOSERINE] . Output its Hepatotoxicity (time to onset) only.
11 weeks

// Input: O=C(O)C1N=C(c2ccccc2)c2cc(Cl)ccc2NC1=O (centres undefined) [CLORAZEPIC ACID] . Output its Hepatotoxicity (time to onset) only.
2 months - 3 months

---

- test method notes: Highest frequency of moderate liver toxicity observed during clinical trials, expressed as a percentage. [column '% BIOL' in source]
- test context: human, Liver
Measured Hepatotoxicity (moderate), listed per entry for reference.
Numeric answer only, unit % assumed.

// below: answered molecules
molecule	u	Hepatotoxicity (moderate)
CN(C)Cc1ccc(CSCCN/C(=C\[N+](=O)[O-])NCc2ccc3c(c2)OCO3)o1	%	0
Cc1c(F)c(N2CCNC(C)C2)cc2c1c(=O)c(C(=O)O)cn2C1CC1 (centres undefined)	%	14.3
CC(NC(C)(C)C)C(=O)c1cccc(Cl)c1 (centres undefined)	%	0
COC(=O)[C@H](c1ccccc1Cl)N1CCc2sccc2C1	%	3
Nc1ccn([C@H]2CC[C@@H](CO)O2)c(=O)n1	%	14.9

// Input: `Cc1nnc2n1-c1ccc(Cl)cc1C(c1ccccc1Cl)=NC2` . Output its Hepatotoxicity (moderate) only.
0

// Input: `CC(=O)[C@@]1(O)CC[C@H]2[C@@H]3C[C@H](C)C4=CC(=O)CC[C@]4(C)[C@H]3CC[C@@]21C` . Output its Hepatotoxicity (moderate) only.
4.9

// Input: `Nc1ccc(S(=O)(=O)Nc2nccs2)cc1` . Output its Hepatotoxicity (moderate) only.
0

// Input: CCOc1ccccc1OCC1CNCCO1 (centres undefined) . Output its Hepatotoxicity (moderate) only.
0

// Input: `Nc1ccc(S(=O)(=O)Nc2ncccn2)cc1` . Output its Hepatotoxicity (moderate) only.
2.7

// Input: `CC[C@H]1OC(=O)[C@H](C)C(=O)[C@H](C)[C@@H](O[C@@H]2O[C@H](C)C[C@H](N(C)C)[C@H]2O)[C@](C)(OC)C[C@@H](C)C(=O)[C@H](C)[C@H]2N(CCCCn3cnc(-c4cccnc4)c3)C(=O)O[C@]12C` . Output its Hepatotoxicity (moderate) only.
1.8

---

Measured Hepatotoxicity (severe hepatitis), listed per entry for reference.
- test context: human
Kindly provide the number alone.

// Input: O=C(Cc1cccs1)N[C@@H]1C(=O)N2C(C(=O)[O-])=C(C[n+]3ccccc3)CS[C@H]12 [CEPHALORIDINE] . Output its Hepatotoxicity (severe hepatitis) only.
0

// Input: CC(C(=O)O)c1ccc(C(=O)c2ccccc2)s1 (centres undefined) [TIAPROFENIC ACID] . Output its Hepatotoxicity (severe hepatitis) only.
0

// Input: CC(=O)OCC1=C(C(=O)O)N2C(=O)[C@@H](NC(=O)Cc3cccs3)[C@H]2SC1 [CEPHALOTHIN] . Output its Hepatotoxicity (severe hepatitis) only.
0

// Input: CC(CCc1ccccc1)NCC(O)c1ccc(O)c(C(N)=O)c1 (centres undefined) [LABETALOL] . Output its Hepatotoxicity (severe hepatitis) only.
4

---

Measured Hepatotoxicity (acute), listed per entry for reference.
- test method notes: Highest frequency of acute liver toxicity observed during clinical trials, expressed as a percentage. [column '% AIGUE' in source]
- test context: human
Numeric answer only, unit % assumed.

molecule	u	Hepatotoxicity (acute)
COc1ccnc(C[S+]([O-])c2nc3ccc(OC(F)F)cc3[nH]2)c1OC (stereo not given)	%	0
Cc1cccc(N2CC(CO)OC2=O)c1 (stereo not given)	%	0
Sc1ncnc2[nH]ncc12	%	0
CC(CN(C)C)CN1c2ccccc2Sc2ccc(C#N)cc21 (stereo not given)	%	0
COCc1c(C(=O)OC(C)C)ncc2[nH]c3ccc(OCc4ccccc4)cc3c12	%	0

// Input: `COc1cc(C)c(/C=C/C(C)=C/C=C/C(C)=C/C(=O)O)c(C)c1C` . Output its Hepatotoxicity (acute) only.
10

// Input: `C[C@H]1C[C@H]2[C@@H]3CCC4=CC(=O)C=C[C@]4(C)[C@@]3(F)[C@@H](O)C[C@]2(C)[C@@]1(O)C(=O)CO` . Output its Hepatotoxicity (acute) only.
0

Measured values drawn from ChEMBL document CHEMBL3137667 for this set.
